Assay readout: melting point

INSERT INTO measurements (compound, assay_readout, result) VALUES
  ('CC(C)C[C@H](NC(=O)OCc1ccccc1)C(=O)N[C@@H](Cc1cccs1)C(=O)CSCc1ccco1', 'melting point', '106 to 107 °C');

For record CC1=C(C(=O)OC(C)C)C(c2cccc(Cl)c2)NC(=O)N1C(=O)NC(C)c1ccccc1 (centres undefined) the listed melting point is 198 to 200 °C

For record COc1ccc(S(=O)(=O)N2C(=O)[C@@](c3ccccc3OC)(N3C[C@H](OC(=O)N(C)C)C[C@H]3C(=O)N(C)C)c3cc(Cl)ccc32)c(OC)c1 the listed melting point is 138 to 140 °C

For record COc1ccc2c(c1)CCCCN2C(=O)Nc1cccc(C(F)(F)F)c1 the listed melting point is 108 °C

src = a melting point compilation (Tetko et al.; mined from patent text by program, amines drawn as free bases though some values may be those of a salt)
